# System: velvetleaf (Abutilon theophrasti)
# Method Notes: Test B preemergence
# Type: in vivo
# Stated Conditions: preemergence; Rate 125 g/ha; scale of 0 to 100 where 0 is no effect and 100 is complete control; 13 to 15 days
Measure: Plant response rating, Velvetleaf

| Compound | Measure | Reported Result |
| --- | --- | --- |
| COc1cc(N2CCC(n3ccc(C(C)C)n3)C2=O)ccc1C (centres unmarked) [Compound 85] | Plant response rating, Velvetleaf | 20 |

Under velvetleaf (Abutilon theophrasti), report Plant response rating, Velvetleaf for Cc1c(F)cc(N2CCC(n3ccc(C(C)(C)C)n3)C2=O)cc1Br (centres unmarked) [Compound 78]
0

Under velvetleaf (Abutilon theophrasti), report Plant response rating, Velvetleaf for Cc1ccc(N2CCC(n3ccc(C(C)(C)C)n3)C2=O)cc1OCCCl (centres unmarked) [Compound 109]
0

Under velvetleaf (Abutilon theophrasti), report Plant response rating, Velvetleaf for CC(C)(C)c1ccn(C2CCN(c3ccc(F)c(Cl)c3)C2=O)n1 (centres unmarked) [Compound 46]
0

Under velvetleaf (Abutilon theophrasti), report Plant response rating, Velvetleaf for COc1cc(N2CCC(n3ccc(C(C)(C)C)n3)C2=O)ccc1Cl (centres unmarked) [Compound 117]
40

---

# Test system: barnyardgrass (Echinochloa crus-galli)
# Method Notes: Test C flooded paddy test
# Assay type: in vivo
# Stated Conditions: Flooded Paddy; Rate 500 g/ha; scale 0 to 100, 0 no effect, 100 complete control
Listed next: entries and their corresponding Barnyardgrass plant response rating.
Respond using a number only.

| Molecule | Barnyardgrass plant response rating |
| --- | --- |
| CCCCC(C)c1ccn(C2OCN(c3cccc(OC(F)(F)F)c3)C2=O)n1 (stereo not drawn) | 100 |
| Cc1ccc(N2CCC(n3ccc(C(C)(C)C)n3)C2=O)cc1OC(F)F (stereo not drawn) | 90 |
| CCC(CC)c1ccn(C2SCN(c3cccc(C(F)(F)F)c3)C2=O)n1 (stereo not drawn) [Compound 21] | 100 |
| CC(C)(C)c1ccn(C2CCN(c3ccc(F)c(Br)c3)C2=O)n1 (stereo not drawn) | 100 |
| CCCC(C)c1ccn(C2SCN(c3cccc(C(F)(F)F)c3)C2=O)n1 (stereo not drawn) | 100 |

Please supply the value of reported Barnyardgrass plant response rating for the item CC1(c2ccn(C3SCN(c4cccc(OC(F)(F)F)c4)C3=O)n2)CC1 (stereo not drawn)
100

Please supply the value of reported Barnyardgrass plant response rating for the item COc1cc(N2CCC(n3ccc(C(C)(C)C)n3)C2=O)cc2ccccc12 (stereo not drawn)
0

Please supply the value of reported Barnyardgrass plant response rating for the item CC1(c2ccn(C3OCN(c4cccc(C(F)(F)F)c4)C3=O)n2)CC1 (stereo not drawn)
80

Please supply the value of reported Barnyardgrass plant response rating for the item CC(C)(C)c1ccn(C2OCN(c3cccc(OC(F)(F)F)c3)C2=O)n1 (stereo not drawn)
100

---

# System: johnsongrass (Sorghum halepense)
# Method Notes: Test C preemergence
# Format: in vivo
# Stated Conditions: Rate 125 g/ha; scale 0 to 100, 0 no effect, 100 complete control
Measure: Plant response rating, Johnsongrass
Respond using a number only.

Below are worked cases with known answers.
| Compound | Plant response rating, Johnsongrass |
| --- | --- |
| Cc1ccc(N2CCC(n3ccc(C(C)(C)C)n3)C2=O)cc1OC(F)F (stereo not drawn) | 0 |
| CCC(C)c1ccn(C2OCN(c3cccc(OC(F)F)c3)C2=O)n1 (stereo not drawn) | 100 |
| CC(C)OC(=O)c1cccc(N2CCC(n3ccc(C(C)(C)C)n3)C2=O)c1 (stereo not drawn) | 20 |

Please supply the value of reported Plant response rating, Johnsongrass for the item COc1cc(N2CCC(n3ccc(C(C)C)n3)C2=O)ccc1Cl (stereo not drawn)
80

Please supply the value of reported Plant response rating, Johnsongrass for the item CCCC(C)c1ccn(C2CCN(c3ccc(Cl)c(OC)c3)C2=O)n1 (stereo not drawn)
90

Please supply the value of reported Plant response rating, Johnsongrass for the item CC(C)(C)c1ccn(C2OCN(c3cccc(OC(F)F)c3)C2=O)n1 (stereo not drawn)
100

Please supply the value of reported Plant response rating, Johnsongrass for the item CC(C)(C)c1ccn(C2CCN(c3cccc(OC(F)F)c3)C2=O)n1 (stereo not drawn)
30

Please supply the value of reported Plant response rating, Johnsongrass for the item CCCC(C)c1ccn(C2OCN(c3cccc(OC(F)F)c3)C2=O)n1 (stereo not drawn)
80

Please supply the value of reported Plant response rating, Johnsongrass for the item CCC(CC)c1ccn(C2CCN(c3cccc(OC)c3)C2=O)n1 (stereo not drawn)
30
